Reference source for all entries: the supplement of paper PMC10567573

B1: CDC34 (parent)
chain: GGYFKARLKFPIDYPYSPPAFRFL

- Variants of: B1
- PROCEDURE_TEXT: protein stability index of a GFP-peptide fusion (GPS, HEK-293T) (PSI 1-6); higher = more stable;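 also: lentivirally expressed fusions sorted by FACS into six bins by GFP to DsRed ratio, PSI derived from sequencing read proportions per bin multiplied by bin number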
- STUDY_CONDITIONS: c terminus: a fixed tail appended
MEASURED_PROPERTY: protein stability index
Number, no unit, nothing else.

These recorded examples may help you get a feel for the data.
Find the recorded protein stability index belonging to RGYFKARLKFPIDYPYSPPAFRFL and report it.
2.45

Find the recorded protein stability index belonging to GGYFKARLKFPIDYPYSPPVFRFL and report it.
2.96

Find the recorded protein stability index belonging to GGYFKARLKFPIHYPYSPPAFRFL and report it.
3.16

Find the recorded protein stability index belonging to GGYKKARLKFPIDYPYSPPAFRFL and report it.
3.11

Find the recorded protein stability index belonging to GGYFKARLKFPIDYPYSPPAFRVL and report it.
3.6

Alright, here's another variant for you.
Find the recorded protein stability index belonging to GGYFKARLKFPIDYPNSPPAFRFL and report it.
2.71
